These measurements were taken from patent US8957085B2.

pKi: −log10 of the molar value.
# UniProtKB P41145: pKi values follow
# Sequence (P41145 whole entry): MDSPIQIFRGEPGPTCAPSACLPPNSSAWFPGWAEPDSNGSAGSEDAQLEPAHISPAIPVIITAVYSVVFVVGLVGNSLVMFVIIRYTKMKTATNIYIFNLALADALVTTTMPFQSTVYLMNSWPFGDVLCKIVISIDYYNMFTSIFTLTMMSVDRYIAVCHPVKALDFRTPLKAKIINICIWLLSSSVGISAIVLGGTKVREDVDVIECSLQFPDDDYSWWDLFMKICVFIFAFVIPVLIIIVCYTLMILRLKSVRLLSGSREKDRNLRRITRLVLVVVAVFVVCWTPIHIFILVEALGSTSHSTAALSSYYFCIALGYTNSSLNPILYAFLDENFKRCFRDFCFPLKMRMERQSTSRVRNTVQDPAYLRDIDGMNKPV
quantity_kind: pKi

> print(dat)
                                    compound      assay.system  experimental.result
 1  CC1C2Cc3ccc(C(=O)NCCc4ccc(-c5ccc(C#N)cc5)cc4)cc3C1(C)CCN2CC1CC1 (racemic)  UniProtKB P41145                 9.00
 2  CCOc1ccc(-c2ccc(CCNC(=O)c3ccc4c(c3)C3(C)CCN(CC5CC5)C(C4)C3C)cc2)cc1 (racemic)  UniProtKB P41145                 8.48
 3  C[C@H]1C2Cc3ccc(C(=O)NCCc4ccc(-c5ccc(C(N)=O)cc5)cc4)cc3[C@@]1(C)CCN2CC1CC1 (racemic)  UniProtKB P41145                 9.04
 4  CC1C2Cc3ccc(C(=O)NCCc4ccc(-c5ccc(O)cc5)cc4)cc3C1(C)CCN2CC1CC1 (single isomer, unassigned) [Compound 1A]  UniProtKB P41145                 9.44
 5  CC(C)Oc1cccc(-c2ccc(CCNC(=O)c3ccc4c(c3)C3(C)CCN(CC5CC5)C(C4)C3C)cc2)c1 (racemic)  UniProtKB P41145                 8.62
 6  CC1C2Cc3ccc(C(=O)NCCc4ccc(-c5ccc(C=O)cc5)cc4)cc3C1(C)CCN2CC1CC1 (racemic)  UniProtKB P41145                 8.74
 7  CC1C2Cc3ccc(C(=O)NCCc4ccc(-c5ccc6c(c5)OCO6)cc4)cc3C1(C)CCN2CC1CC1 (racemic)  UniProtKB P41145                 9.14
 8  C[C@H]1C2Cc3ccc(C(=O)NCCc4ccc(-c5ccc(C(=O)O)cc5)cc4)cc3[C@@]1(C)CCN2CC1CC1 (racemic)  UniProtKB P41145                 7.26
 9  COC(=O)c1ccc(-c2ccc(CCNC(=O)c3ccc4c(c3)[C@@]3(C)CCN(CC5CC5)C(C4)[C@@H]3C)cc2)cc1 (racemic)  UniProtKB P41145                 8.96
10  CC(C)Oc1ccccc1-c1ccc(CCNC(=O)c2ccc3c(c2)C2(C)CCN(CC4CC4)C(C3)C2C)cc1 (racemic)  UniProtKB P41145                 8.74
11  CC1C2Cc3ccc(C(=O)NCCc4ccc(-c5ccc(O)cc5)cc4)cc3C1(C)CCN2CC1CC1 (racemic) [Compound 1]  UniProtKB P41145                 9.31
12  COc1ccc(-c2ccc(CCNC(=O)c3ccc4c(c3)C3(C)CCN(CC5CC5)C(C4)C3C)cc2)c(C)c1 (racemic)  UniProtKB P41145                 8.89

====

# Ki annotations
molecular target: UniProt:P35372
Sequence (P35372 whole entry): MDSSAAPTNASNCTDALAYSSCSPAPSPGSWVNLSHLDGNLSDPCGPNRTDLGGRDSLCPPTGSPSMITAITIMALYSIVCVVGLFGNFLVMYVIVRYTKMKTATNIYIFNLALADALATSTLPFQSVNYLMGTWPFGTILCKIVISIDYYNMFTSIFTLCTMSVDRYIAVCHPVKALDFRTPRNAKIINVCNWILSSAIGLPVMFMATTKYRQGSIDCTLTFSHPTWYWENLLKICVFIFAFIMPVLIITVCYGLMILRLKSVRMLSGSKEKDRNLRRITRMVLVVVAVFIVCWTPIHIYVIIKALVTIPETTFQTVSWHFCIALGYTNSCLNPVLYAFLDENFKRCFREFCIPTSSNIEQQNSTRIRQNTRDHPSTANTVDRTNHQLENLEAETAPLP
quantity_kind: Ki (nM)

> print(dat)
                                   compound  experimental.result
1  COc1ccc(-c2ccc(CCNC(=O)c3ccc4c(c3)C3(C)CCN(CC5CC5)C(C4)C3C)cc2)c(C)c1 (racemic)                 0.23
2  CC1C2Cc3ccc(C(=O)NCCc4ccc(-c5ccc(C=O)cc5)cc4)cc3C1(C)CCN2CC1CC1 (racemic)                0.002
3  C[C@H]1C2Cc3ccc(C(=O)NCCc4ccc(-c5ccc(C(=O)O)cc5)cc4)cc3[C@@]1(C)CCN2CC1CC1 (racemic)                  2.3
4  CC(C)Oc1ccc(-c2ccc(CCNC(=O)c3ccc4c(c3)C3(C)CCN(CC5CC5)C(C4)C3C)cc2)cc1 (racemic)                 0.23
5  CC(C)Oc1cccc(-c2ccc(CCNC(=O)c3ccc4c(c3)C3(C)CCN(CC5CC5)C(C4)C3C)cc2)c1 (racemic)                 0.43
6  CC1C2Cc3ccc(C(=O)NCCc4ccc(-c5ccc(C#N)cc5)cc4)cc3C1(C)CCN2CC1CC1 (racemic)                0.017
7  COC(=O)c1ccc(-c2ccc(CCNC(=O)c3ccc4c(c3)[C@@]3(C)CCN(CC5CC5)C(C4)[C@@H]3C)cc2)cc1 (racemic)               0.0091
8  C[C@H]1C2Cc3ccc(C(=O)NCCc4ccc(-c5ccc(C(N)=O)cc5)cc4)cc3[C@@]1(C)CCN2CC1CC1 (racemic)               0.0052

====

# human δ opioid receptor (Homo sapiens): Ki values follow
# Sequence (P41143 whole entry): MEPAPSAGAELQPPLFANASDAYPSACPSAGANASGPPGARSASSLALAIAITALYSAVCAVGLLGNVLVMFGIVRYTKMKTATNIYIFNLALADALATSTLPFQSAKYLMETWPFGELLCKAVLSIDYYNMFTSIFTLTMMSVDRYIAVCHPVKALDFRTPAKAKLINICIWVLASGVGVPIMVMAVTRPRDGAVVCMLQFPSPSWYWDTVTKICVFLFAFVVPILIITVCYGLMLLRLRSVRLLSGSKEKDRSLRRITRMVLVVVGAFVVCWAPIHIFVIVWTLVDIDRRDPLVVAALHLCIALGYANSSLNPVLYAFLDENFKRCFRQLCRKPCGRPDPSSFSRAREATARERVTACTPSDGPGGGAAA
quantity_kind: Ki (nM)

> print(dat)
                                    molecule  quantity.kind  output.unit  experimental.result
 1  CC1C2Cc3ccc(C(=O)NCCc4ccc(-c5ccc(C=O)cc5)cc4)cc3C1(C)CCN2CC1CC1 (racemic) [Compound 10]             Ki           nM                  2.5
 2  CC1C2Cc3ccc(C(=O)NCCc4ccc(-c5ccc(O)cc5)cc4)cc3C1(C)CCN2CC1CC1 (single isomer, unassigned) [Compound 1A]             Ki           nM                 0.78
 3  COc1ccc(-c2ccc(CCNC(=O)c3ccc4c(c3)C3(C)CCN(CC5CC5)C(C4)C3C)cc2)c(C)c1 (racemic) [Compound 3]             Ki           nM                  1.1
 4  CC1C2Cc3ccc(C(=O)NCCc4ccc(-c5ccc(O)cc5)cc4)cc3C1(C)CCN2CC1CC1 (racemic) [Compound 1]             Ki           nM                 0.81
 5  CC1C2Cc3ccc(C(=O)NCCc4ccc(-c5ccc(C#N)cc5)cc4)cc3C1(C)CCN2CC1CC1 (racemic) [Compound 9]             Ki           nM                    3
 6  COc1ccc(-c2ccc(CCNC(=O)c3ccc4c(c3)C3(C)CCN(CC5CC5)C(C4)C3C)cc2)cc1C (racemic) [Compound 2]             Ki           nM                  1.5
 7  CC(C)Oc1cccc(-c2ccc(CCNC(=O)c3ccc4c(c3)C3(C)CCN(CC5CC5)C(C4)C3C)cc2)c1 (racemic) [Compound 6]             Ki           nM                  3.9
 8  C[C@H]1C2Cc3ccc(C(=O)NCCc4ccc(-c5ccc(C(=O)O)cc5)cc4)cc3[C@@]1(C)CCN2CC1CC1 (racemic) [Compound 35]             Ki           nM                   68
 9  CC(C)Oc1ccc(-c2ccc(CCNC(=O)c3ccc4c(c3)C3(C)CCN(CC5CC5)C(C4)C3C)cc2)cc1 (racemic) [Compound 5]             Ki           nM                  1.9
10  CC1C2Cc3ccc(C(=O)NCCc4ccc(-c5ccc6c(c5)OCO6)cc4)cc3C1(C)CCN2CC1CC1 (racemic) [Compound 8]             Ki           nM                    1
11  C[C@H]1C2Cc3ccc(C(=O)NCCc4ccc(-c5ccc(C(N)=O)cc5)cc4)cc3[C@@]1(C)CCN2CC1CC1 (racemic) [Compound 34]             Ki           nM                    1
12  CCOc1ccc(-c2ccc(CCNC(=O)c3ccc4c(c3)C3(C)CCN(CC5CC5)C(C4)C3C)cc2)cc1 (racemic) [Compound 4]             Ki           nM                  3.4
13  COC(=O)c1ccc(-c2ccc(CCNC(=O)c3ccc4c(c3)[C@@]3(C)CCN(CC5CC5)C(C4)[C@@H]3C)cc2)cc1 (racemic) [Compound 36]             Ki           nM                  1.5
14  CC(C)Oc1ccccc1-c1ccc(CCNC(=O)c2ccc3c(c2)C2(C)CCN(CC4CC4)C(C3)C2C)cc1 (racemic) [Compound 7]             Ki           nM                 0.55
